testedSystem: GPR84 (Mus musculus, UniProt Q8CIM5)
Sequence (Q8CIM5 whole entry): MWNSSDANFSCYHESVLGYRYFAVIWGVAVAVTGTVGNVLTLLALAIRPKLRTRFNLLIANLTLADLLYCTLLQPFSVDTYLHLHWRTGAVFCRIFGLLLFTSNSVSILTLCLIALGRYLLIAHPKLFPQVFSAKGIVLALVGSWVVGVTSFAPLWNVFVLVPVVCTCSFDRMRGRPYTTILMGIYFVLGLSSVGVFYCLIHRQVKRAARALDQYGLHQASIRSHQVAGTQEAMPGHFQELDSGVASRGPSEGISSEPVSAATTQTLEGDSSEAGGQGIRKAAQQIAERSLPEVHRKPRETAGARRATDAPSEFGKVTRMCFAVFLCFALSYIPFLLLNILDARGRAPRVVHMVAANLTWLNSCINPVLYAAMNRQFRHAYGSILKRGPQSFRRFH
assayNotes: cAMP inhibition assay in Dox-inducible mouse GPR84 HEK293 cells, with Dox-uninduced controls
Type: cell-based
assayMetric: EC50 (µM)
Numeric answer only, unit µM assumed.

## Input Report EC50 for "CCCCCCCCCC(=O)O" please.
## Output 3.5

====

testedSystem: GPR84 (Mus musculus)
assayNotes: cAMP inhibition assay in Dox-inducible mouse GPR84 HEK293 cells, with Dox-uninduced controls
Assay type: cell-based
measurementContext: read-out: EC50
assayMetric: EC50 (µM)
Numeric answer only, unit µM assumed.

## Input Report EC50 for "CCCCCCCCCCCC(=O)O" please.
## Output 4.4
